# SYSTEM UNDER TEST: Homoprotocatechuate 2,3-dioxygenase (FeHPCD), Y257F variant (Brevibacterium fuscum, UniProt Q45135, Y257F)
# TEST NAME: competition with 4NC by UV-vis
# Format: binding
PROPERTY NAME: Kd

Reported Kd ( O=C(O)Cc1ccc(O)c(O)c1 [HPCA, homoprotocatechuate] ) = < 5 µM

* * *

# SYSTEM UNDER TEST: Homoprotocatechuate 2,3-dioxygenase (FeHPCD) (Brevibacterium fuscum)
pKd: −log10 of the molar value.
PROPERTY NAME: pKd

Field pKd (system: Homoprotocatechuate 2,3-dioxygenase (FeHPCD) (Brevibacterium fuscum)) for entry O=C(O)Cc1ccc(O)c(O)c1 [HPCA, homoprotocatechuate] = > 5.30

Origin of measurements: paper PMC3513391
